Molecular target: Mucosa-associated lymphoid tissue lymphoma translocation protein 1 (Homo sapiens, UniProt Q9UDY8)
Sequence (Q9UDY8 whole entry): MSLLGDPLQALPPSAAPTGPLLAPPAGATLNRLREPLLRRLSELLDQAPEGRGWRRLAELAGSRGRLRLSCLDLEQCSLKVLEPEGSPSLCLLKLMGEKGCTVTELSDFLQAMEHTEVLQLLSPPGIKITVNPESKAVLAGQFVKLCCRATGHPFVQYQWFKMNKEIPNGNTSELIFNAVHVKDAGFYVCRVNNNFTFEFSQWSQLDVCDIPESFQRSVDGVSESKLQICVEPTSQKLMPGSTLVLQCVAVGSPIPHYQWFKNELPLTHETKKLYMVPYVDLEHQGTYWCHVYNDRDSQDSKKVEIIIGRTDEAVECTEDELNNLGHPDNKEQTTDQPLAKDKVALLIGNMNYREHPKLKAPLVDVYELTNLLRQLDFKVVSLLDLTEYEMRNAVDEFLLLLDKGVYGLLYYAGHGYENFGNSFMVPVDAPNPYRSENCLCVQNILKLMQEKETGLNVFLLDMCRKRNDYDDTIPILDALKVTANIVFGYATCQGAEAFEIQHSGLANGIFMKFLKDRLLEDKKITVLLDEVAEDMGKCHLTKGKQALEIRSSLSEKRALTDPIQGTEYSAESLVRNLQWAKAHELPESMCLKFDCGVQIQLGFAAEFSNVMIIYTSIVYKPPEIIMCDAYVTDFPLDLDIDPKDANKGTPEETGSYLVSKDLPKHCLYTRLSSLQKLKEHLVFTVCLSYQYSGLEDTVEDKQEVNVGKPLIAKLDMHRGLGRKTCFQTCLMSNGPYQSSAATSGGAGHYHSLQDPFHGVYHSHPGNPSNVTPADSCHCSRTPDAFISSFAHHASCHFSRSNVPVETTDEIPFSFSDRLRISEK
pIC50: −log10 of the molar value.

SMILES_ENTRY: CCOc1ncc(NC(=O)Nc2cnc3cc(Cl)nn3c2C(C)C)cc1Cl
pIC50: 8.30
